Reference source for all entries: patent US20230135108A1

In this section we review reported half-life at 10 µM values for a set of molecules.
- Protocol Summary: Simulated gastric fluid (SGF) assay
- Assay type: in vitro ADME
- Condition Summary: simulated gastric fluid with pepsin; pH 1.2-1.5, pepsin, 37° C.; read-out: half-life in a gastric environment (SGF)
Where a name gives a salt, the structure may show the parent alone.

{"Molecule": "C=C(C)[C@@H]1CCC(C)=C[C@H]1c1c(O)cc(CCCCC)c(C(=O)O)c1O", "half-life at 10 µM": "~19.7 min"}
{"Molecule": "CCCCCc1cc2c(c(O)c1C(=O)O)[C@@H]1C=C(C)CC[C@H]1C(C)(C)O2 [THCA-arginine salt]", "half-life at 10 µM": "~14.4 min"}
